- system_under_test: T1, P1bH1
- T1 chain: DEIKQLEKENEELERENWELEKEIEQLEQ
- test_description: two-hybrid library CCNG1;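 note: natural log of median RNA to DNA barcode read ratio; higher means stronger binding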
Could you please report measured interaction score for the items listed next?
One number for each entry.

>>> assay_value("DKNKQLKKKIEELKRKIWELKKENEQLEQ [P12bH1]")
-0.0192
>>> assay_value("DEIKQLEKENEELERENWELEKEIEQLEQ [P1bH1]")
-0.717
>>> assay_value("DENKQLEKEIEELEREIWELEKKNEQLKQ [P11bH1]")
-2.02

Here is the next item to consider.
Q) Using the record for DKNKQLKKENEELERKIWELKKKIEQLKQ [P10bH1] , report its interaction score.
A) 1.14
